# System: 786-O
# assayProcedure: Euclidean distance of Cell Painting phenotypic profile (signed KS, 77 features) to DMSO centroid (dimensionless distance); 5 or 10 uM (library dependent); higher = stronger phenotypic change vs DMSO (phenoactivity)
# conditionInfo: 48 h
Structures can show the parent of a compound that is named as a salt.
For each of the molecules below, state its Euclidean distance.
Answers are plain numbers.

CC(C(=O)O)c1ccc(CC2CCCC2=O)cc1 (centres undefined) [Loxoprofen]
1.12
CC(C(=O)O)c1cccc(C(=O)c2ccccc2)c1 (centres undefined) [Ketoprofen]
1.28
CC1(C)OCCn2c1nc1c(N3CCOCC3)nc(-c3cnc(N)nc3)nc12
2.79
COC(=O)/C=C/C(=O)OC [Dimethyl Fumarate]
1.01
CN1CCN(CC/C=C2/c3ccccc3Sc3ccc(S(=O)(=O)N(C)C)cc32)CC1 [Thiothixene]
2.81
O=C(/C=C/c1ccc(O)c(O)c1)O[C@@H]1C[C@](O)(C(=O)O)C[C@@H](O)[C@H]1O [Chlorogenic Acid]
1.05
O=c1cc(-c2cccc3c2Sc2ccccc2S3)oc(N2CCOCC2)c1
0.999
O=C1NC(=O)C(=Cc2ccc(-c3ccc(F)cc3)o2)S1 (stereo in doubt)
1.04

Alright, here's another molecule for you.
Task item: What does the record list as Euclidean distance for O=C1Nc2ccccc2/C1=C1/Nc2ccccc2C1=O [Indirubin] ?
Reply: 1.05

---

# Tested on: OVCAR4
# assayProcedure: Euclidean distance of Cell Painting phenotypic profile (signed KS, 77 features) to DMSO centroid (dimensionless distance); 5 or 10 uM (library dependent); higher = stronger phenotypic change vs DMSO (phenoactivity)
# conditionInfo: 48 h
Counter-ions that a name gives are not always drawn.
For each of the molecules below, state its Euclidean distance.
Answers are plain numbers.

Answered examples (5):
N#CC(=C(/N)Sc1ccccc1N)/C(C#N)=C(\N)Sc1ccccc1N
1.48
Nc1ncnc2c1ncn2[C@@H]1O[C@H](CO)[C@@H](O)[C@@H]1O [Vidarabine monohydrate]
1.18
CCCCNc1ncc(-c2ccc(CN3CCOCC3)cn2)c(NC2CCC(O)CC2)n1 (stereo unspecified)
0.882
C/C(O)=C(\C#N)C(=O)Nc1ccc(C(F)(F)F)cc1 [Teriflunomide]
2.02
COc1ccc(-c2cnc3c(-c4cccc5ncccc45)cnn3c2)cc1
0.818

Provide the reported Euclidean distance of each entry below, same order.
1. O=C(O)CNC(=O)c1ncc(-c2cccc(Cl)c2)cc1O
2. CC(=O)O/N=C1\C(=O)N(Cc2cc(Cl)ccc2Cl)c2ccc(Cl)cc21
3. C[C@@H](O[C@H]1OCCN(Cc2nn(P(=O)(O)O)c(=O)[nH]2)[C@H]1c1ccc(F)cc1)c1cc(C(F)(F)F)cc(C(F)(F)F)c1 [Fosaprepitant dimeglumine salt]
4. CC1=C(C(=O)OC(C)C)C(c2cccc([N+](=O)[O-])c2)C(C(=O)OC2CN(C(c3ccccc3)c3ccccc3)C2)=C(N)N1 (stereo unspecified)
5. CN(Cc1cnc2nc(N)nc(N)c2n1)c1ccc(C(=O)N[C@@H](CCC(=O)O)C(=O)O)cc1 [Methotrexate]
6. C=CC(=O)N1CCC(Oc2cc3c(Nc4ccc(Cl)c(Cl)c4F)ncnc3cc2OC)CC1 [Poziotinib (HM781-36B)]
7. COc1ccc(C(=O)NCc2ccc(OCCN(C)C)cc2)cc1OC [Itopride hydrochloride]
8. O=C1[C@H](Cc2ccc(O)cc2)N2C(=O)CCN(C(=O)NCc3ccccc3)[C@H]2CN1Cc1cccc2ccccc12

Reply:
[2.35, 1.34, 0.995, 2.01, 2.57, 2.12, 0.695, 2.09]

Provide the reported Euclidean distance of each entry below, same order.
1. N=C(N)NC(=N)NCCc1ccccc1 [Phenformin HCl]
2. CN1CCC(=C2c3ccccc3C=Cc3ccccc32)CC1 [Cyproheptadine HCl]
3. CC(C)(Cc1ccc2ccccc2c1)NC[C@@H](O)COc1cccc(Cl)c1C#N
4. Nc1ncnc2c1c(-c1cnc3[nH]ccc3c1)nn2C1CCCC1

Reply:
1. 0.844
2. 1.39
3. 1.45
4. 3.29

---

# Test system: DU145
# assayProcedure: Euclidean distance of Cell Painting phenotypic profile (signed KS, 77 features) to DMSO centroid (dimensionless distance); 5 or 10 uM (library dependent); higher = stronger phenotypic change vs DMSO (phenoactivity)
# conditionInfo: 48 h
Where a name gives a salt, the structure may show the parent alone.
Label 1 when Euclidean distance is at or above 0.8; anything below gets 0.

// below: answered molecules
O=C1CC[C@H](N2Cc3c(OCc4ccc(CN5CCOCC5)cc4)cccc3C2=O)C(=O)N1 [Iberdomide(CC220)]
0
COC(=O)[C@H](c1ccccc1Cl)N1CCc2sccc2C1
1
CC(C)NCC(O)COc1ccc(COCCOC(C)C)cc1 (stereo not drawn) [Bisoprolol fumarate]
0
CC[C@H](C)[C@H](NC(=O)[C@H]([C@@H](C)CC)N(C)C(C)=O)C(=O)N[C@H](C(=O)N[C@@H](CC(C)C)C(=O)[C@@]1(C)CO1)[C@@H](C)O
1
COc1ccc(C(C)=O)c(O)c1
1
CCC(=O)O[C@@H](O[P@](=O)(CCCCc1ccccc1)CC(=O)N1C[C@H](C2CCCCC2)C[C@H]1C(=O)O)C(C)C [Fosinopril Sodium]
1

Please look at the following molecule next.
Task item: Is Euclidean distance at least 0.8? Consider C[C@@H](CN1CC(=O)NC(=O)C1)N1CC(=O)NC(=O)C1 [Dexrazoxane HCl (ICRF-187. ADR-529)]
Reply: 1

---

# Test system: FB
# assayProcedure: Euclidean distance of Cell Painting phenotypic profile (signed KS, 77 features) to DMSO centroid (dimensionless distance); 5 or 10 uM (library dependent); higher = stronger phenotypic change vs DMSO (phenoactivity)
# conditionInfo: 48 h
Label true when Euclidean distance is at or above 2; anything below gets false.

CCN(CC)Cc1cc(Nc2ccnc3cc(Cl)ccc23)ccc1O [Amodiaquine]
true

Task item: Is Euclidean distance at least 2? Consider CN1C(=O)C(Cc2c[nH]c3ccccc23)NC1=S (stereo not drawn)
Reply: false

Task item: Is Euclidean distance at least 2? Consider CCCCOc1ccc(CC(=O)NO)cc1
Reply: false

Task item: Is Euclidean distance at least 2? Consider NC(=NCCCCCCN=C(N)N=C(N)Nc1ccc(Cl)cc1)N=C(N)Nc1ccc(Cl)cc1 [Chlorhexidine?2HCl]
Reply: false

Task item: Is Euclidean distance at least 2? Consider Nc1ccn([C@@H]2O[C@H](CO)[C@@H](O)[C@@H]2O)c(=O)n1
Reply: true

---

# Test system: HEPG2
# assayProcedure: Euclidean distance of Cell Painting phenotypic profile (signed KS, 77 features) to DMSO centroid (dimensionless distance); 5 or 10 uM (library dependent); higher = stronger phenotypic change vs DMSO (phenoactivity)
# conditionInfo: 48 h
Where a name gives a salt, the structure may show the parent alone.
Label 1 when Euclidean distance is at or above 0.9; anything below gets -1.

// below: answered molecules
O=c1[nH]cnc2nc[nH]c12
-1
N=C(N)NC(=O)Cc1c(Cl)cccc1Cl [Guanfacine Hydrochloride]
-1
NS(=O)(=O)NCCNc1nonc1/C(=N/O)Nc1ccc(F)c(Br)c1
1

Task item: Is Euclidean distance at least 0.9? Consider C#C[C@]1(O)CC[C@H]2[C@@H]3CCC4=CC(=O)CC[C@@H]4[C@H]3CC[C@@]21CC
Reply: 1

Task item: Is Euclidean distance at least 0.9? Consider CC(=O)S[C@@H]1CC2=CC(=O)CC[C@]2(C)[C@H]2CC[C@@]3(C)[C@@H](CC[C@@]34CCC(=O)O4)[C@H]12
Reply: -1

Task item: Is Euclidean distance at least 0.9? Consider CCCOc1ccc2c(c1)CC[C@@H]1[C@@H]2CC[C@]2(C)[C@@H](OC)CC[C@@H]12
Reply: -1

Task item: Is Euclidean distance at least 0.9? Consider CCC[S+]([O-])c1ccc2[nH]c(NC(=O)OC)nc2c1 (stereo not drawn) [Albendazole Oxide]
Reply: 1

Task item: Is Euclidean distance at least 0.9? Consider Oc1cccc(O)c1
Reply: 1

Task item: Is Euclidean distance at least 0.9? Consider CC(C)(O/N=C(\C(=O)N[C@@H]1C(=O)N2C(C(=O)[O-])=C(C[n+]3ccccc3)CS[C@H]12)c1csc(N)n1)C(=O)O
Reply: -1

Task item: Is Euclidean distance at least 0.9? Consider OCC1OC(OC2OC(CO)C(O)C(O)C2O)C(O)C(O)C1O [D-(+)-Trehalose Anhydrous]
Reply: 1

Task item: Is Euclidean distance at least 0.9? Consider O=C1CN(/N=C/c2ccc(-c3ccc([N+](=O)[O-])cc3)o2)C(=O)N1 [Dantrolene sodium]
Reply: -1

Task item: Is Euclidean distance at least 0.9? Consider C[C@@H]1O[C@@H](O[C@H]2[C@H](Oc3cc(O)c4c(c3)O[C@H](c3ccc(O)cc3)CC4=O)O[C@H](CO)[C@@H](O)[C@@H]2O)[C@H](O)[C@H](O)[C@H]1O
Reply: -1

Task item: Is Euclidean distance at least 0.9? Consider O=C1CC[C@@H](C(=O)N2CSC[C@H]2C(=O)O)N1
Reply: -1

Task item: Is Euclidean distance at least 0.9? Consider CC(C)c1cc(-c2ccc(F)c3ccccc23)nc(N)n1
Reply: 1

Task item: Is Euclidean distance at least 0.9? Consider NC(=O)c1cnc(N[C@@H]2CCCC[C@@H]2N)nc1Nc1cccc(-n2nccn2)c1
Reply: 1

Task item: Is Euclidean distance at least 0.9? Consider Cn1cc(C2=C(c3cccc(N)c3)C(=O)NC2=O)c2ccccc21
Reply: 1

Task item: Is Euclidean distance at least 0.9? Consider Cc1cncc(CN2CCC(=C3c4ccc(Cl)cc4CCc4cccnc43)CC2)c1 [Rupatadine Fumarate]
Reply: 1

// provenance: the supplement of paper PMC10127200
